Test system: RAW264.7
Protocol description: Antiinflammatory activity in mouse RAW264.7 cells assessed as inhibition of LPS-induced PGE2 production by EIA
Assay type: functional, cell-based
Conditions: Mus musculus, RAW264.7; read-out: IC50
Answer each item with its documented log10 of IC50.
Heads up: the numbers are on a log10 scale; they represent IC50 in µM.

q: Look up and report measured log10 of IC50 for this entry: CC(=O)Oc1ccc(C2=C(c3ccc([S+](C)[O-])cc3)C(=O)OC2=O)cc1 (stereo unspecified)
a: 1.84

q: Supply log10 of IC50 value. Item: C[S+]([O-])c1ccc(C2=C(c3ccc(F)cc3)C(=O)NC2=O)cc1 (stereo unspecified)
a: 1.66

q: Look up log10 of IC50 of O=C1NC(=O)C(c2ccc3c(c2)OCO3)=C1c1ccccc1 and report it.
a: 0.90

q: Please report log10 of IC50 for the following compound: COc1cc(C2=C(c3ccccc3)C(=O)OC2=O)cc(OC)c1OC
a: 1.57

q: Please report log10 of IC50 for the following compound: CSc1ccc(C2=C(c3ccc(NC(C)=O)cc3)C(=O)OC2=O)cc1
a: 0.76

q: Name the recorded log10 of IC50 of the item C[S+]([O-])c1ccc(C2=C(c3ccccc3)C(=O)NC2=O)cc1 (stereo unspecified) in your answer.
a: 1.33
